# Tested on: SW-620 colon
# protocol-description: NCI tumour cell line growth inhibition, 48 h; in the data active means GI50 below about 0.43 µM; inactive means the rest
Write down the outcome that applies. Available outcomes: class 1 = active, class 0 = inactive

Inquiry: Please let me know the test result on file for CCN1C(=O)N(CC)C2C1NN=c1s/c(=C\c3ccc(Cl)cc3Cl)c(=O)n12 (stereo unspecified) .
Reply text: class 1

Inquiry: Please let me know the test result on file for O=C(O)c1nc(NCc2nc3cc(Cl)ccc3o2)n[nH]1 .
Reply text: class 0

Inquiry: Please let me know the test result on file for O=C1/C(=C/c2ccc([N+](=O)[O-])cc2)CN(C(=O)CCN2CCC(=NO)CC2)C/C1=C\c1ccc([N+](=O)[O-])cc1 .
Reply text: class 1

Inquiry: Please let me know the test result on file for O=C(Nc1cccc(Cl)c1)Nn1cnnc1 .
Reply text: class 0

Inquiry: Please let me know the test result on file for COc1cc(/C=C/C(=O)/C=C/c2cc(OC)c3c(c2)OCO3)cc2c1OCO2 .
Reply text: class 0

Inquiry: Please let me know the test result on file for CCOc1ccccc1CCN=C1NC(=O)/C(=C/c2ccc3ncccc3c2)S1 .
Reply text: class 0

Inquiry: Please let me know the test result on file for Nc1nc2ccc(-c3nc4ccc5[nH]ncc5c4c4c3CCC4)cc2s1 .
Reply text: class 1

Inquiry: Please let me know the test result on file for c1ccc(-c2nc(-c3ccccn3)nc(-c3ccccn3)n2)nc1 .
Reply text: class 0

Inquiry: Please let me know the test result on file for Cc1ccc2cnc(N)c(C#Cc3cc(C(=O)Nc4ccc(CN5CCN(C)CC5)c(C(F)(F)F)c4)cnc3C)c2c1 .
Reply text: class 1

Inquiry: Please let me know the test result on file for CO/N=C(\COc1ccc2c(c1)[nH]c1ccccc12)c1ccc(OC)cc1 .
Reply text: class 0

Inquiry: Please let me know the test result on file for N#CC(C#N)=C/C=C(\Cl)c1ccc(Cl)cc1 .
Reply text: class 0

----------
# System: TK-10 renal
# protocol-description: NCI tumour cell line growth inhibition, 48 h
result-type: TGI

Inquiry: Which TGI value is on record for CCc1cccc(C)c1NS(=O)(=O)c1ccccc1 ?
Reply text: > 100 µM

Inquiry: Which TGI value is on record for Cc1ccc2cnc(N)c(C#Cc3cc(C(=O)Nc4ccc(CN5CCN(C)CC5)c(C(F)(F)F)c4)cnc3C)c2c1 ?
Reply text: 1.48 µM

Inquiry: Which TGI value is on record for CCOC(=O)c1c(C)n(Cc2ccc(Cl)cc2Cl)c2c1cc(O)c1[nH]c3c(c12)CCCC3 ?
Reply text: 45.4 µM

Inquiry: Which TGI value is on record for O=C1c2cccc([N+](=O)[O-])c2C(=O)N1Cc1ccccc1 ?
Reply text: > 100 µM

Inquiry: Which TGI value is on record for CCc1n[nH]c(=O)n1CCCCCCCCCCCCn1c(CC)n[nH]c1=O ?
Reply text: > 100 µM

Inquiry: Which TGI value is on record for CCOc1ccccc1CCN=C1NC(=O)/C(=C/c2ccc3ncccc3c2)S1 ?
Reply text: > 23.3 µM

Inquiry: Which TGI value is on record for C=C(c1ccccc1)C1(O)CCCCC1N (stereo not drawn) ?
Reply text: > 100 µM

Inquiry: Which TGI value is on record for CCCCN(CCCC)Cc1cc(Nc2ccnc3cc(Cl)ccc23)ccc1O ?
Reply text: 26.4 µM

Inquiry: Which TGI value is on record for Cn1ccnc1CCc1c(Cl)cccc1Cl ?
Reply text: > 100 µM

Inquiry: Which TGI value is on record for CN1CCN(C(=S)N(C)C(=O)c2ccco2)CC1 ?
Reply text: > 100 µM

Inquiry: Which TGI value is on record for Cc1ccc(S(=O)(=O)NC(=O)Nc2nnc(S(N)(=O)=O)s2)cc1 ?
Reply text: > 100 µM

Inquiry: Which TGI value is on record for CCNCCNC(=O)c1ccc(I)cc1 ?
Reply text: > 100 µM

Inquiry: Which TGI value is on record for Cc1nc(C(N)=O)c(N)n1CCN1CCN(C(=O)CCCCCCCCCCNC2N=CNc3nc[nH]c32)CC1 (stereo not drawn) ?
Reply text: > 100 µM

Inquiry: Which TGI value is on record for CCCN1C(=O)NC(=O)C(CC)(N2C(=O)c3c(F)c(F)c(F)c(F)c3C2=O)C1=O (stereo not drawn) ?
Reply text: 6 µM

Inquiry: Which TGI value is on record for O=C1OCC2=C1C(c1cccc(F)c1)c1cc3c(cc1N2CCO)OCO3 (stereo not drawn) ?
Reply text: > 50 µM

Inquiry: Which TGI value is on record for CN1N=CSC12C(=O)N(c1ccccc1)C(=O)N2c1ccccc1 (stereo not drawn) ?
Reply text: > 100 µM

Inquiry: Which TGI value is on record for c1ccc(-c2csc3c4ccccc4c4ccccc4[n+]23)cc1 ?
Reply text: 43.6 µM

Inquiry: Which TGI value is on record for Cc1ccc(Nc2nc3[nH]ccc3c(=O)[nH]2)cc1 ?
Reply text: > 100 µM

Inquiry: Which TGI value is on record for Cc1ccc2nc(SCC(=O)N=Nc3c(O)[nH]c4ccccc34)n(-c3ccccc3)c(=O)c2c1 ?
Reply text: 29.2 µM

Inquiry: Which TGI value is on record for CC(=O)c1c(O)c(C)c(O)c(Cc2c(O)c3c(c(C(=O)/C=C/c4ccccc4)c2O)OC(C)(C)C=C3)c1O ?
Reply text: > 100 µM

Inquiry: Which TGI value is on record for CC(C)(C)c1ccc(OCCOc2ccc(C(C)(C)C)cc2N)c(N)c1 ?
Reply text: > 100 µM

Inquiry: Which TGI value is on record for O=C1[C@H](O)[C@@H]2C(O)O[C@H]3[C@@H]2N1C[C@H]3[Si](c1ccccc1)(c1ccccc1)c1ccccc1 (stereo partly drawn) ?
Reply text: > 100 µM

Inquiry: Which TGI value is on record for COc1cccc(-c2nc3cc(NC(=O)c4ccc(Cl)c(C#N)c4)ccc3o2)c1 ?
Reply text: 9 µM

Inquiry: Which TGI value is on record for Clc1ccc(-c2cn3ccnc3c(-c3ccc(Cl)cc3)n2)cc1 ?
Reply text: 73.5 µM

Inquiry: Which TGI value is on record for CN(C)CC(O)c1ccc(Cl)c2ccccc12 (stereo not drawn) ?
Reply text: > 94 µM

Inquiry: Which TGI value is on record for N#C[Se]Cc1cc(-c2ccccc2)n(-c2ccc(S(N)(=O)=O)cc2)n1 ?
Reply text: 7.83 µM

Inquiry: Which TGI value is on record for N#CCCN(CCC#N)c1ccc(/C=C2\N=C(c3ccccc3)N(c3ccc(F)cc3)C2=O)cc1 ?
Reply text: > 100 µM

Inquiry: Which TGI value is on record for CCN(CCCOc1ccccc1)CCN(CC)CCCOc1ccccc1 ?
Reply text: 27.1 µM

Inquiry: Which TGI value is on record for CC(=O)Nc1ccc2c(C)c3c(nc2n1)[nH]c1ccccc13 ?
Reply text: > 100 µM

Inquiry: Which TGI value is on record for CC[O-].CC[O-].O=C([CH-]C(=O)c1ccccc1)CCCCCCCCC(=O)[CH-]C(=O)c1ccccc1.[Ti+4] ?
Reply text: > 100 µM

Inquiry: Which TGI value is on record for O=C(c1ccc2ccccc2c1)c1c(C(F)(F)F)n([O-])c2ccc(C(F)(F)F)cc2[n+]1=O ?
Reply text: 3.07 µM

Inquiry: Which TGI value is on record for O=C(Nc1ccc(N2C(=O)CSC2c2ccccc2O)cc1)c1ccc(N2C(=O)CSC2c2ccccc2O)cc1 (stereo not drawn) ?
Reply text: > 100 µM

Inquiry: Which TGI value is on record for c1ccc(NN(Cc2cnccn2)c2ccccc2)cc1 ?
Reply text: > 100 µM

Inquiry: Which TGI value is on record for COc1ccc2c(c1)C(=O)CC1c3cnccc3C(=O)N21 (stereo not drawn) ?
Reply text: > 100 µM

Inquiry: Which TGI value is on record for COc1ccc2c(c1)C(=O)/C(=C/c1cccc(OCC(=O)c3ccccc3)c1)CC2 ?
Reply text: > 100 µM

Inquiry: Which TGI value is on record for COc1cc(/C=C/C(=O)/C=C/c2cc(OC)c3c(c2)OCO3)cc2c1OCO2 ?
Reply text: > 100 µM

Inquiry: Which TGI value is on record for c1cc[c]([Sn][c]2ccccc2)cc1 ?
Reply text: 51.2 µM

Inquiry: Which TGI value is on record for O=S(=O)(/N=c1\scc(-c2ccccc2)n1-c1ccccc1)c1ccc(N2N=C3c4ccccc4CC3C2c2ccc(Cl)cc2)cc1 (stereo not drawn) ?
Reply text: > 100 µM

Inquiry: Which TGI value is on record for O=c1[nH]cc(NCCCl)c(=O)[nH]1 ?
Reply text: > 100 µM

Inquiry: Which TGI value is on record for S=C1c2ccc(Cl)cc2-n2cnnc2C2CSCN12 (stereo not drawn) ?
Reply text: > 100 µM

Inquiry: Which TGI value is on record for c1ncn(C23C4C5C6C4C2C6C53)n1 (stereo not drawn) ?
Reply text: > 100 µM

Inquiry: Which TGI value is on record for COc1cc2c(c3c1c(=O)c1ccccc1n3C)C=CC1(CCCC1)O2 ?
Reply text: 33.7 µM

Inquiry: Which TGI value is on record for C[C@@H]1OC(=O)C[C@H]2CC(=O)N(CCC3CN(C(=O)OCc4ccccc4)c4ccccc43)C[C@@H]21 (stereo partly drawn) ?
Reply text: > 100 µM
